B1: WSB1 (parent)
chain: DLKDDGNMMKVLRGHQNWVYSCAF

Variants of: B1
Assay: protein stability index of a GFP-peptide fusion (GPS, HEK-293T) (PSI 1-6); higher = more stable;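 further: lentivirally expressed fusions sorted by FACS into six bins by GFP to DsRed ratio, PSI derived from sequencing read proportions per bin multiplied by bin number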
Details: c terminus: a fixed tail appended
Measured Quantity: protein stability index
Keep it simple and answer with nothing but the number.

Below are worked cases with known answers.
[
  {
    "Mutation Name": "R13S",
    "protein stability index": 1.53
  },
  {
    "Mutation Name": "W18I",
    "protein stability index": 2.35
  },
  {
    "Mutation Name": "K3H",
    "protein stability index": 1.93
  },
  {
    "Mutation Name": "M9A",
    "protein stability index": 2.02
  },
  {
    "Mutation Name": "N17H",
    "protein stability index": 1.26
  }
]

Could you tell me which protein stability index is on file for W18R ?
1.65

Would you mind telling me what protein stability index value was observed for Q16N ?
1.79

Recorded protein stability index for F24G , please?
2.19

Which protein stability index is reported for this variant? H15E
2.75

I am curious: what protein stability index value has been reported for G6V ?
1.74

Give the measured protein stability index of K10F .
4.7
